Molecular target: human ether-à-go-go-related gene (hERG) potassium channel (human);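 also: peak tail current of the secondary pulse compared with the same well before compound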
Test: primary screen, population patch clamp on CHO cells stably expressing hERG; higher = less effect of the substance
About 14,000 (4.5%) of roughly 310,000 compounds showed an effect of 50% or more. The effect is printed as a negative number. Many of the other results were omitted from the sample, so strong results are more common in it than they were.
Consider the following molecules and their measured hERG current change (%, negative = inhibition) at 10uM readings.
observation type: hERG current change (%, negative = inhibition) at 10uM (%)

{"molecule": "Cc1c(Cc2ccccc2)sc(NC(=O)/C=C/c2cccc3ccccc23)c1C(N)=O", "value reported": 20}
{"molecule": "Cc1nn(CC(=O)Nc2ccc3c(c2)nc(CN2CCCC2)n3C)c(=O)c2ccccc12", "value reported": -13.4}
{"molecule": "O=S(=O)(c1cccs1)N1CCC(Cc2ccccc2)CC1", "value reported": 6.58}
{"molecule": "Cc1cc(C)c(S(=O)(=O)N2CCN(C(=O)C3CCCO3)CC2)c(C)c1 (stereo not drawn)", "value reported": -17.1}
{"molecule": "Clc1ccccc1-c1ccc(/C=N/n2cnnc2)o1", "value reported": -24.1}
{"molecule": "Cc1ccccc1OC(C)C(=O)NCCC1=CCCCC1 (stereo not drawn)", "value reported": -1.85}
{"molecule": "CCOC(=O)COc1c(Br)cc(/C=C2\\SC(=O)N(CC(=O)N3CCCC3)C2=O)cc1OC", "value reported": -24}
{"molecule": "O=C(NCCN1CCOCC1)C1CC(=O)N(c2ccc(F)c(Cl)c2)C1 (stereo not drawn)", "value reported": -3.45}
{"molecule": "Cc1cc(C)cc(C(=O)NC(CC(N)=O)c2ccc(NC3CCCCCCC3)c([N+](=O)[O-])c2)c1 (stereo not drawn)", "value reported": 1.06}

---

Biological target: human ether-à-go-go-related gene (hERG) potassium channel (human, UniProt Q12809);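 also: peak tail current of the secondary pulse compared with the same well before compound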
Sequence (Q12809 whole entry, looked up): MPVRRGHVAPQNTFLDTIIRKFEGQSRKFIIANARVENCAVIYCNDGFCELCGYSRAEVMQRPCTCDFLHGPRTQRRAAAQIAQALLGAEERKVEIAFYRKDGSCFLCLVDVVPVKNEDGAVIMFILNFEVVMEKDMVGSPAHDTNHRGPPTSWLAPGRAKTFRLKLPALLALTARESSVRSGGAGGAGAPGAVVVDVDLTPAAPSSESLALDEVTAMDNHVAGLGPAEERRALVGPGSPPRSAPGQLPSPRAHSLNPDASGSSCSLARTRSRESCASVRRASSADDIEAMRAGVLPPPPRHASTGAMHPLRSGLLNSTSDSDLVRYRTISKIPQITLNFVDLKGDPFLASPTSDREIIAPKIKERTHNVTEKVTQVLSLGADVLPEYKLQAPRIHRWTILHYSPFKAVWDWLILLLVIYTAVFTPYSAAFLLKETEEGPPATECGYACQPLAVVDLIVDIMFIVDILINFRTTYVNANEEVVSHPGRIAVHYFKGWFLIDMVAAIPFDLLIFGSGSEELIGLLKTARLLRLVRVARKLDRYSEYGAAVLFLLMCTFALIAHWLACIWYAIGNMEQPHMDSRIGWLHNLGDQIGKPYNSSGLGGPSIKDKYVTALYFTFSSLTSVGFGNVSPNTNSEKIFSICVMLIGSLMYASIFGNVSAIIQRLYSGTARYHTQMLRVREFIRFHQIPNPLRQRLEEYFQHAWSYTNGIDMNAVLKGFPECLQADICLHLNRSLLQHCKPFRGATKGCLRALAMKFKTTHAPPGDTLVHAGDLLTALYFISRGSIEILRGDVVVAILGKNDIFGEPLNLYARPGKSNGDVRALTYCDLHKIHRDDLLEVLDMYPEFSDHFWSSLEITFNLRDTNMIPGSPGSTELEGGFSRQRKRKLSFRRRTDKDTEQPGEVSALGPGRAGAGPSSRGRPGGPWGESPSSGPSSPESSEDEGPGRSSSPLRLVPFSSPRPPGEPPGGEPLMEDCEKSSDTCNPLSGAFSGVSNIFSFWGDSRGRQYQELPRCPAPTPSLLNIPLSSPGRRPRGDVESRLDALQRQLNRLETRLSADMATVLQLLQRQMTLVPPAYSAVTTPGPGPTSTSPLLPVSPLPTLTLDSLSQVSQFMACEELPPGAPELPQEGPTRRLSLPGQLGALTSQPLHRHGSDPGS
Experiment: primary screen, population patch clamp on CHO cells stably expressing hERG; higher = less effect of the substance
Among all 310,000 compounds or so, about 14,000 (4.5%) showed an effect of 50% or more. Effects have a minus sign here. The entries come from a sample that favours strong results as a whole.
Consider the following compounds and their measured hERG current change (%, negative = inhibition) at 10uM readings.
observation type: hERG current change (%, negative = inhibition) at 10uM (%)

{"compound": "CCSC1=N/C(=C\\c2cccc(F)c2)C(=O)S1", "value reported": 10.4}
{"compound": "O=C(c1cc(COc2ccc(F)c(F)c2)on1)N1CCN(C2CCCCC2)C(=O)C1", "value reported": -56.2}
{"compound": "COc1cccc(OCC(O)CN2CCN(c3ccc(Cl)cc3)CC2)c1 (centres unmarked)", "value reported": -71.9}
{"compound": "COc1cccc(OCC(O)CN2CCN(c3ccccc3)CC2)c1 (centres unmarked)", "value reported": -45.2}
{"compound": "COCCn1c(N)c(C(=O)NCC2CCCO2)c2nc3ccccc3nc21 (centres unmarked)", "value reported": -7.66}
{"compound": "COc1cccc(OC)c1OCC(O)CN1CCN(c2ccc(F)cc2)CC1.Cl (centres unmarked)", "value reported": -74.9}
{"compound": "COc1ccc2nc(C)cc(N3CC(C)OC(C)C3)c2c1 (centres unmarked)", "value reported": -49.6}
{"compound": "O=C(CCCn1c(SCC(=O)c2ccc(Cl)cc2)nc2ccccc2c1=O)NCc1ccco1", "value reported": 3.21}
{"compound": "CSc1ccc(S(=O)(=O)NCC(=O)OCC(=O)N2CCCC2=O)cc1[N+](=O)[O-]", "value reported": -9.51}
{"compound": "CN(C)c1ccc(-c2nnc(-c3cccnc3)o2)cc1", "value reported": 7.04}
{"compound": "COc1ccc2nc(C)cc(C(=O)O)c2c1", "value reported": 0.7}
{"compound": "O=C(CSc1nnc(SCc2ccccc2)s1)N/N=C/c1ccc(Cl)cc1Cl", "value reported": -5.88}
{"compound": "CCOC(=O)C1CCN(c2cc(C)nc3ccc(OC)cc23)CC1", "value reported": -73.8}
{"compound": "Brc1cc(Br)c2ncnc(N3CCCCC3)c2c1", "value reported": -11.8}
{"compound": "COc1ccc(C(=O)CN2CCN(c3ncccn3)CC2)cc1.O=C(O)C(=O)O", "value reported": 5.13}
{"compound": "Cc1cc(C)c(S(=O)(=O)Nc2cccc(C(=O)O)c2)cc1S(=O)(=O)Nc1cccc(C(=O)O)c1", "value reported": 18.2}
{"compound": "COc1cccc(OCc2cc(C(=O)N3CCN(C4CCCCC4)C(=O)C3)no2)c1", "value reported": -3.09}
{"compound": "N#Cc1cc[n+](CC(=O)c2ccc(NC(=O)c3ccccc3)cc2)cc1.[Br-]", "value reported": -14.6}
{"compound": "COc1ccc2nc(C)cc(N3CCN(c4ccccc4)CC3)c2c1", "value reported": -66.7}
{"compound": "O=C(COC(=O)c1ccc2ncsc2c1)NCc1cccc(Cl)c1", "value reported": -11.2}
{"compound": "CCc1nnc(NC(=O)CSc2nnc(COc3ccccc3)n2Cc2ccccc2)s1", "value reported": 5.71}
{"compound": "O=C1CN(C(=O)c2ccccc2[N+](=O)[O-])C(c2ccccc2)c2cc(Br)ccc2N1 (centres unmarked)", "value reported": -66.5}
{"compound": "OC(CSc1ccccc1Cl)CN1CCN(c2ccccc2F)CC1 (centres unmarked)", "value reported": -30.7}
{"compound": "CCOCc1nnc(NC(=O)C2CC(=O)N(C3CCCC3)C2)s1 (centres unmarked)", "value reported": 4.92}
{"compound": "Cl.Clc1ccc(CNCCC2=CCCCC2)cc1", "value reported": -40}
{"compound": "O=C(NCc1cccnc1)c1cccs1", "value reported": 11.7}
{"compound": "CCN1CC2=C(OC(N)=C(C#N)C2c2ccccc2)/C(=C\\c2ccccc2)C1 (centres unmarked)", "value reported": -6.02}
{"compound": "O=C(OCCC1Oc2cccnc2NC1=O)c1ccc(F)cc1 (centres unmarked)", "value reported": 12.6}
{"compound": "COc1ccc2nc(C)cc(N3CCOCC3)c2c1", "value reported": -14.6}
{"compound": "COc1ccc(N2CCN(CC(=O)c3ccccc3)CC2)cc1", "value reported": 11}
{"compound": "O=C(c1cc(COc2ccc(F)c(F)c2)on1)N1CCOCC1", "value reported": 5.02}
{"compound": "O=C1CCN(C(=O)Nc2cccc(Cl)c2)N1", "value reported": 14.1}
{"compound": "O=C(COC(=O)c1cc([N+](=O)[O-])ccc1NCCO)Nc1ccc2c(c1)OCO2", "value reported": 5.75}
{"compound": "OC(CSc1ccccc1Cl)CN1CCN(c2ccc(F)cc2)CC1 (centres unmarked)", "value reported": -57.4}
{"compound": "O=C1CN(C(=O)c2ccccc2F)C(c2ccc(F)cc2)c2cc(Br)ccc2N1 (centres unmarked)", "value reported": -23}
{"compound": "COc1ccc(N2CCN(c3cc(C)c4ccccc4n3)CC2)cc1", "value reported": 3.95}
{"compound": "COCCn1c(C)cc(/C=N/NC(=O)c2cc3ccccc3cc2O)c1C", "value reported": 10.3}
{"compound": "Cc1cccc(-n2c(SCC(N)=O)nnc2-c2ccccn2)c1C", "value reported": 1.28}
{"compound": "CCCCNC(=O)C1c2ccccc2C(=O)N(c2ccc(OC)cc2)C1c1ccc(OC)cc1 (centres unmarked)", "value reported": -18.6}
{"compound": "COc1cccc(OCC(O)CN2CCN(c3ccccc3)CC2)c1.Cl (centres unmarked)", "value reported": -43.4}
{"compound": "O=C(c1cc(COc2ccc(F)cc2Cl)on1)N1CCN(C2CCCC2)CC1", "value reported": -61.4}
